Km: recorded values
Assay: Kinetic assay of purified DAOCS with penicillin N as main substrate
Format: biochemical
Settings: for penicillin N; 0.5 μg purified DAOCS, 30° C., 10 minutes; triplicate, Hanes-Woolf Plot
measuredAttribute: Km (µM)

• YS115: mutated penicillin expandase (DAOCS) with substitution M73T (protein, UniProt P18548 1-311, looked up, variant M73T) Deacetoxycephalosporin C …: MDTTVPTFSLAELQQGLHQDEFRRCLRDKGLFYLTDCGLTDTELKSAKDLVIDFFEHGSEAEKRAVTSPVPTTRRGFTGLESESTAQITNTGSYSDYSMCYSMGTADNLFPSGDFERIWTQYFDRQYTASRAVAREVLRATGTEPDGGVEAFLDCEPLLRFRYFPQVPEHRSAEEQPLRMAPHYDLSMVTLIQQTPCANGFVSLQAEVGGAFTDLPYRPDAVLVFCGAIATLVTGGQVKAPRHHVAAPRRDQIAGSSRTSSVFFLRPNADFTFSVPLARECGFDVSLDGETATFQDWIGGNYVNIRRTSKA = 6
• YS11: mutated penicillin expandase (DAOCS) with substitution I305M (protein, UniProt P18548 1-311, looked up, variant I305M) Deacetoxycephalosporin C …: MDTTVPTFSLAELQQGLHQDEFRRCLRDKGLFYLTDCGLTDTELKSAKDLVIDFFEHGSEAEKRAVTSPVPTMRRGFTGLESESTAQITNTGSYSDYSMCYSMGTADNLFPSGDFERIWTQYFDRQYTASRAVAREVLRATGTEPDGGVEAFLDCEPLLRFRYFPQVPEHRSAEEQPLRMAPHYDLSMVTLIQQTPCANGFVSLQAEVGGAFTDLPYRPDAVLVFCGAIATLVTGGQVKAPRHHVAAPRRDQIAGSSRTSSVFFLRPNADFTFSVPLARECGFDVSLDGETATFQDWIGGNYVNMRRTSKA = 12
